Values from the RNAGym collection of RNA variant scans (doi:10.1073/pnas.2313332121)

B1: TPR 5TU (parent)
chain: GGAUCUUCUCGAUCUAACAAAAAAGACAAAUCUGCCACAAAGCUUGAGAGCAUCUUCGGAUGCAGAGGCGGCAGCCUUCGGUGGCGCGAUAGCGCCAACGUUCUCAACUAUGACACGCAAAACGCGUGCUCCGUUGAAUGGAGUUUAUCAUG

- Variants of: B1
- Protocol details: polymerase ribozyme fitness, log enrichment relative to wild type (log ratio); higher = more active; in vitro selection for triplet polymerase activity
Variants at the floor of the assay were thinned out.
Assign Condition met to entries whose polymerase ribozyme fitness (log ratio) meets or exceeds -3; assign Condition not met to the rest.

Take a look at these entries with their results.
G50C C95U U146G ... Condition not met
C10G C36U U55A C95U G133U ... Condition not met
A16G A21C C27G G59A G67C U145G ... Condition not met
U44A C79G C85A U111G G133C ... Condition not met
C8A C57U G67C C95A A97G U151A ... Condition not met
G65A G71U C85A ... Condition not met
C76U A150U ... Condition met
C75U A91C A119G G136U ... Condition not met

Exam item: decide whether the reported polymerase ribozyme fitness (log ratio) for U55A G128A is at least -3.
Condition not met

# iterate: G70C G126U G152A
Condition not met

# repeat for C14U C87A
Condition not met

Same lookup for G71A A91U U146G , please.
Condition not met

Can you check C54U U146A next?
Condition met

Next entry: C57U C69G G84A C85G
Condition not met

Another variant: C18U C132U U135A
Condition met

Now give it for A3C C57U U82G G84A U90A C93G C149U too.
Condition not met

// query: A26C C57A A60C G88A U109G A110G C118G
Condition not met

Similarly, A52G C79U G92A C116G ?
Condition not met

Would you mind doing A12C G86C A106U A115U U144A as well?
Condition not met

Follow-up item: A40G C54U C76U A91C C95G G143U
Condition not met

And for U33G A39C C54U ?
Condition not met

Check U78G C87G too.
Condition not met

What do you have for U61G G74U G83A ?
Condition not met

Try this variant next: C85G C125A U130C
Condition met

Same for C27A G86U U144A
Condition not met

Again, but for C54U U56A G86A U102A C116A
Condition met

Then A41C A47C C96U C103U A115G ?
Condition not met

Same question, G58U C129G this time
Condition met

Next variant: U56A G136A
Condition met

Then what about the variant A49C U55A A66U C72A C85U ?
Condition not met

Continue with A21U G83C
Condition met
